System: BT-549 breast
Experiment: NCI tumour cell line growth inhibition, 48 h
reported.endpoint: TGI

*Q* Given N#CC(c1ccccc1)N1CCCN(C(C#N)c2ccccc2)C1c1ccccc1O (stereo not drawn) , state its recorded TGI.
*A* > 100 µM

*Q* Which TGI value belongs to `O=C(c1cccc(OCc2ccccc2)c1OCc1ccccc1)N1CCSC1=S` ?
*A* > 100 µM

*Q* Value lookup for TGI; key = `ClCc1ccc(-c2ccc(Cn3cnc4c(Cl)nc(Cl)nc43)cc2)cc1`
*A* 15.5 µM

---

Field: TGI. Provide a value for each of the molecules that follow.
Tested on: HOP-62 NSCLC
Assay: NCI tumour cell line growth inhibition, 48 h

*Q* Requested field: TGI. Item: COC(=O)C1Cc2cccc(C)c2C1 (stereo not drawn)
*A* > 100 µM

*Q* Endpoint output: TGI of `CC1(C)CC[C@]2(C(=O)O)CC[C@]3(C)C(=CC[C@@H]4[C@@]5(C)C[C@H](O)[C@H](O)[C@@](C)(CO)C5=CC[C@]43C)[C@@H]2C1` . Value?
*A* > 100 µM

*Q* Endpoint output: TGI of COC(=O)C(C(=O)C(=O)NC1=C(Cl)C(=O)c2ccccc2C1=O)c1csc(-n2nc(-c3ccccc3)cc2-c2ccccc2)n1 (stereo not drawn) . Value?
*A* > 100 µM

---

Provide the reported TGI of each item.
System: NCI-H226 lung
Test: NCI tumour cell line growth inhibition, 48 h

*Q* Fill in: TGI of CCCCCCCC/C=C\CCCCCCC(F)C(=O)O (stereo not given) is ___
*A* > 12.5 µM

*Q* Value lookup for TGI; key = `O=c1[nH]c(-c2cccc(F)c2)nc2ccccc12`
*A* > 100 µM

*Q* # TGI lookup, item ClC1CCC2OOC1O2 (stereo not given)
*A* > 100 µM

*Q* Report TGI for `COC(=O)C(=O)c1c2ccccc2n2ccc3c4ccccc4[nH]c3c12` please.
*A* > 10 µM

*Q* # lookup: TGI of Cc1ccc2c(c1)C(=O)C(Cc1ccccc1C(=O)O)C2 (stereo not given)
*A* > 100 µM

---

So I've got a bunch of compounds here, and I need their TGI values.
System: LOX IMVI melanoma
Assay: NCI tumour cell line growth inhibition, 48 h
Give just the number in µM; leave the unit off.

*Q* For the compound `COc1cc2ccc3c4c(OC)cc(OC)c(OC)c4c(=O)n(C)c3c2cc1OC` , what TGI is on record?
*A* 3.8

*Q* For the compound `C#CCN=C(N/N=C/c1ccc([N+](=O)[O-])o1)NS(=O)(=O)c1cc(C)c(Cl)cc1SCC(N)=O` , what TGI is on record?
*A* 35.2

*Q* Recorded TGI of `COc1ccc(N(CC(=O)NCCC[Te]c2ccccc2)C(=O)CCSC2=C(C)C(=O)c3ccccc3C2=O)cc1` , please.
*A* 3.54

*Q* Name the reported TGI value associated with the compound `c1cc(OCCN2CCCCCC2)ccc1CNc1ccc2nc(CCC3CCCCC3)[nH]c2c1`
*A* 3.2

*Q* Entry under review: `C=C1C(=O)O[C@H]2[C@H]1CC/C(Cn1cc(Cn3ccc4ccccc43)nn1)=C\CC[C@@]1(C)O[C@@H]21` . Reported TGI?
*A* 3.08

*Q* Would you kindly share the measured TGI for `CCOC(=O)c1c(-c2ccccc2)[n+](=O)c2ccc(Cl)cc2n1[O-]` ?
*A* 3.91

*Q* Item CCCCCC(O)[C@H]1C(=O)C[C@@H](O[Si](C)(C)C(C)(C)C)[C@@H]1/C=C/CCOCc1ccccc1 (stereo partly specified) has what recorded TGI?
*A* 43

*Q* Given the entry `Nc1ccccc1N/C(=C\C(=O)C(Cl)(Cl)Cl)c1ccccc1` , report its measured TGI.
*A* 35.6

*Q* What value of measured TGI is listed for `Oc1c2cc(Br)cc1CCc1cc(Br)cc(c1O)CC2` ?
*A* 31.3

*Q* What does the data say about its TGI? Entry: `O=S(=O)(/N=C(\NO)Nc1ccc(Cl)cc1)c1ccc(S(=O)(=O)c2ccccc2)s1`
*A* 29.3

*Q* What does the record list as TGI for `CCOC(=O)c1c(C)nc2ccc(Cl)cc2c1-c1ccccc1` ?
*A* 37.8

*Q* Requested read-out: TGI. Entry: `Clc1ccc(Nc2nc(Cl)c3[nH]cnc3n2)cc1Cl`
*A* 34.1
